- experimentalTarget: UniProtKB P35367
- Sequence (P35367 whole entry): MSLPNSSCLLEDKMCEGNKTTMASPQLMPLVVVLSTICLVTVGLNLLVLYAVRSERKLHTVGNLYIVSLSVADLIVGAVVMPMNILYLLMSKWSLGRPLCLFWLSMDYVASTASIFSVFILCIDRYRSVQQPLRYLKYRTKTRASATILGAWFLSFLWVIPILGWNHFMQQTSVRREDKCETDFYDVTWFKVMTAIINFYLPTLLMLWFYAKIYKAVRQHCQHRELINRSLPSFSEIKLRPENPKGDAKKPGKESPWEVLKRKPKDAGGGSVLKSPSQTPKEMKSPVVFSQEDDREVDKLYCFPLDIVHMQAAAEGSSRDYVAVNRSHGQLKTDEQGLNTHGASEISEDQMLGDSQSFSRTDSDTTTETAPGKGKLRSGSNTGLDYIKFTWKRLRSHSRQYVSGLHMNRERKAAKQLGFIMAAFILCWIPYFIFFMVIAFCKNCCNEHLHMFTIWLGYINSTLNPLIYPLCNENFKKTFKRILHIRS
- runDescription: Inhibition of human histamine H1 receptor ar 3 uM
endpointName: inhibition (%)

compound | endpointName | readoutValue
CCOc1cc(CN2CCC(NC(=O)c3cncc(C)c3)CC2)ccc1-c1ccc(F)cc1 | inhibition | 89
CCOc1cc(CN2CCC(NC(=O)c3ccc(N)nc3)CC2)cc(OCc2ccccc2)c1-c1ccc(F)cc1 | inhibition | -1.2
CCOc1cc(CN2CCC(NC(=O)c3ccc(NC)nc3)CC2)cc(OCC)c1F | inhibition | 55
CCOc1cc(CN2CCC(NC(=O)c3ccc(N)nc3)CC2)cc(OCC)c1-c1ccc(F)cc1 | inhibition | 4.7
CCOc1cc(CN2CCC(NC(=O)c3ccc(N)nc3)CC2)ccc1C | inhibition | 85
CCOc1cc(CN2CCC(NC(=O)c3ccc(NC(C)C)nc3)CC2)cc(OCC)c1F | inhibition | 35

A = CCOc1cc(CN2CCC(NC(=O)c3cncc(C)c3)CC2)cc(OCC)c1-c1ccc(OC(F)(F)F)cc1
B = CCOc1cc(CN2CCC[C@@H](NC(=O)c3cncc(C)c3)CC2)ccc1C
// query Which value of inhibition is greater, the one for A or the one for B ? Lab log: write the label of the selected item as the result.
// result B

P = CCOc1cc(CN2CCC(NC(=O)c3ccc(NC)nc3)CC2)cc(OCC)c1-c1ccc(F)cc1
Q = CCOc1cc(CN2CCC[C@@H](NC(=O)c3cncc(C)c3)CC2)cc(OCC)c1F
R = CCOc1cc(CN2CCC(NC(=O)c3cncc(C)c3)CC2)cc(OCC)c1-c1ccc(F)cc1
S = CCOc1cc(CN2CCC(NC(=O)c3cncc(C)c3)CC2)cc(OCC)c1-n1ccnc1
// query # sort list by recorded inhibition, greatest to least Form field (ranking): labels in requested order.
// result Q, S, P, R

P = CCOc1cc(CN2CCC(NC(=O)c3cncc(C)c3)CC2)ccc1-c1ccc(C(F)(F)F)cc1
Q = CCOc1cc(CN2CCC(NC(=O)c3ccc(NC)nc3)CC2)cc(OCC)c1-c1ccccc1
// query Compare reported inhibition values for P and Q . Which is lower? Lab log: write the label of the selected item as the result.
// result Q
(Q: 13%, P: 48%)

a = CCOc1cc(CN2CCCC(NC(=O)c3cncc(C)c3)CC2)cc(OCC)c1-c1ccc(F)cc1 (racemic)
b = CCOc1cc(CN2CCC[C@@H](NC(=O)c3cncc(C)c3)CC2)ccc1Cl
c = CCOc1cc(CN2CCC(NC(=O)c3cncc(C)c3)CC2)cc(OCC)c1F
// query Ascending by inhibition, please. Form field (ranking): labels in requested order.
// result c, a, b

P = CCOc1cc(CN2CCC(NC(=O)c3cncc(C)c3)CC2)cc(OCC)c1-c1ccccc1
Q = CCOc1cc(CN2CCC(NC(=O)c3ccc(Cl)nc3)CC2)cc(OCC)c1-c1ccc(F)cc1
// query Which value of inhibition is greater, the one for P or the one for Q ? Lab log: write the label of the selected item as the result.
// result Q
